Reported pIC50 by item:
Molecular target: GMPPNP-loaded KRAS G12C (Homo sapiens, UniProt P01116, G12C)
Sequence (P01116 1-188 isoform P01116-2 G12C): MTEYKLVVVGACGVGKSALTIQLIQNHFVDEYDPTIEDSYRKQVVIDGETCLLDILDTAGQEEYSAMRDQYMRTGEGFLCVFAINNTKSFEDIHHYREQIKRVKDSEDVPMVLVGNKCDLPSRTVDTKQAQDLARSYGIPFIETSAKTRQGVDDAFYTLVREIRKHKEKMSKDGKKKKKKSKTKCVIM
Assay: KRAS G12C RAF Disruption Assay (HTRF)
Conditions: recombinant GMPPNP-loaded KRAS G12C (5 nM), 20 min with compound; GST-RAF1 RBD (9 nM); HTRF signal; read-out: KRASG12C RAF Disruption Assay (IC50)
Procedure: KRAS^G12C RAF Disruption Assay This is a functional assay that measures activity of compounds against KRAS-G12C^(ON), i.e., the active form of KRAS G12C. […] HTRF signal was measured (PerkinElmer Envision), the signal ratio (λem 520/λem 495) was calculated, and IC50 values were calculated from the dose-response curve.
# pIC50 is unitless: minus log10 of the molar concentration; print number only

Some compounds with recorded pIC50:
C#Cc1cccc2cccc(-c3ncc4c(N(C)[C@H]5CN(C(=O)/C(F)=C/c6cnccn6)C[C@H]5F)nc(OC[C@@]56CCCN5C[C@H](F)C6)nc4c3F)c12; 7.22
C#Cc1cccc2cccc(-c3ncc4c(N5CC[C@@H]6CN(C(=O)/C(F)=C/c7ncccn7)C[C@@H]65)nc(OC[C@@]56CCCN5C[C@H](F)C6)nc4c3F)c12; 6.96

// compound C#Cc1c(F)ccc2cc(O)cc(-c3ncc4c(N5CCN(C(=O)/C(F)=C/c6ccccn6)CC5)nc(OC[C@]56CCC[C@H]5N(C)CCC6)nc4c3F)c12 , assay GMPPNP-loaded KRAS G12C (Homo sapiens, UniProt P01116, G12C), pIC50 value: 8.70
